Assignment: determine reported pIC50 for the given molecules.
Species on record: Homo sapiens
ASSAY: In vitro inhibition of histamine release from human basophils
Type: functional, organism-based
CONDITION INFO: Homo sapiens
Numbers only, as −log10 of the molar value.

Worked cases, pIC50 given:
Challenge: Dear colleague, please send me the reported pIC50 for Cc1cc(-c2ccc(C)s2)nc(Nc2ccccc2)n1 when you can.
Response given: 4.61

Challenge: Dear colleague, please send me the reported pIC50 for Nc1cccc(Nc2nccc(-c3cccnc3)n2)c1 when you can.
Response given: 6.30

Challenge: Dear colleague, please send me the reported pIC50 for CC1CCN(C(=O)COc2ccc(Nc3nccc(-c4ccncc4)n3)cc2)CC1 when you can.
Response given: 6.52

Challenge: Dear colleague, please send me the reported pIC50 for CCc1ccc(Nc2nccc(-c3cc(C)oc3C)n2)cc1 when you can.
Response given: 4.72

Challenge: Dear colleague, please send me the reported pIC50 for CCN(CC)CCOc1cccc(Nc2nccc(-c3ccco3)n2)c1 when you can.
Response given: 5.85

Give measured pIC50 for every item shown.
1. Cc1ccsc1-c1ccnc(Nc2ccc(N(C)C)cc2)n1
2. CCN(CC)CCOc1ccc(Nc2nccc(-c3ccncc3)n2)cc1
3. CN(C)c1ccc(Nc2nccc(-c3cccs3)n2)cc1
4. Cc1cccc(Nc2nccc(-c3ccc(C)s3)n2)c1
5. Cc1cccc(Nc2nccc(-c3ccsc3)n2)c1

Response given:
1: 5.74; 2: 6.70; 3: 6.05; 4: 5.85; 5: 5.42

Challenge: Dear colleague, please send me the reported pIC50 for CC(=O)N(C)c1ccc(Nc2nccc(-c3cccnc3)n2)cc1 when you can.
Response given: 6.05
